Cited source: patent US7728146B2

# Test system: liver cell carcinoma cell line Hep-G2
# ASSAY REMARKS: Cytotoxicity screening and LD50 determination on Hep-G2 (LDH, CytoTox-One)
# Assay type: cell-based
# CONDITION DETAILS: 100 μM, Hep-G2, observation of the cells

>  <COMPOUND>
NCc1c(-c2ccc(Cl)cc2Cl)ncn1C(CO)c1ccccc1 (stereo not shown) [Example 126b]

>  <MEASUREMENT TARGET>
liver cell carcinoma cell line Hep-G2

>  <Observed cytotox / % spheric>
10

$$$$
>  <COMPOUND>
COc1ccccc1Cn1cnc(-c2ccc(Cl)cc2Cl)c1CN [Example 120b]

>  <MEASUREMENT TARGET>
liver cell carcinoma cell line Hep-G2

>  <Observed cytotox / % spheric>
50

$$$$
>  <COMPOUND>
NCc1c(-c2ccc(Cl)cc2Cl)ncn1Cc1ccccn1 [Example 39b]

>  <MEASUREMENT TARGET>
liver cell carcinoma cell line Hep-G2

>  <Observed cytotox / % spheric>
20

$$$$
>  <COMPOUND>
NCc1c(-c2ccc(Cl)cc2Cl)ncn1Cc1ccccc1 [Example 24b]

>  <MEASUREMENT TARGET>
liver cell carcinoma cell line Hep-G2

>  <Observed cytotox / % spheric>
10

$$$$
>  <COMPOUND>
COc1cccc(Cn2cnc(-c3ccc(Cl)cc3Cl)c2CN)c1 [Example 59b]

>  <MEASUREMENT TARGET>
liver cell carcinoma cell line Hep-G2

>  <Observed cytotox / % spheric>
10

$$$$

----------
List of log10 of Ki tested on DP IV (Homo sapiens).
RESULT TYPE: log10 of Ki (log10 of the value in µM)

>  <COMPOUND>
NCc1c(-c2ccc(Cl)cc2Cl)ncn1Cc1ccccc1Cl [Example 81b]

>  <log10 of Ki>
-1.71

$$$$
>  <COMPOUND>
COc1ccccc1Cn1cnc(-c2ccc(Cl)cc2Cl)c1CN [Example 120b]

>  <log10 of Ki>
-1.80

$$$$
>  <COMPOUND>
NCc1c(-c2ccc(Cl)cc2Cl)ncn1CCCCCO [Example 38b]

>  <log10 of Ki>
-1.39

$$$$
>  <COMPOUND>
NCc1c(-c2ccc(Cl)cc2Cl)ncn1Cc1cccnc1 [Example 121b]

>  <log10 of Ki>
-2.53

$$$$
>  <COMPOUND>
NCc1c(-c2ccc(Cl)cc2Cl)ncn1C(CO)c1ccccc1 (stereo not shown) [Example 126b]

>  <log10 of Ki>
-1.97

$$$$
>  <COMPOUND>
NCc1c(-c2ccc(Cl)cc2Cl)ncn1CCc1ccccc1Cl [Example 21b]

>  <log10 of Ki>
-1.53

$$$$
>  <COMPOUND>
NCc1c(-c2ccc(Cl)cc2Cl)ncn1Cc1ccccc1OC(F)(F)F [Example 129b]

>  <log10 of Ki>
-2.18

$$$$

----------
# Test system: neuroblastoma cell line SY5Y
# ASSAY REMARKS: LD50 determination on SY5Y (LDH)
# Format: cell-based
# CONDITION DETAILS: 8 serial dilutions, highest concentration 1 mM

>  <MOLECULE>
NCc1c(-c2ccc(Cl)cc2Cl)ncn1Cc1ccccc1Cl [Example 81b]

>  <LD50 cytotox SY5Y [mM]>
0.16

$$$$
>  <MOLECULE>
NCc1c(-c2ccc(Cl)cc2Cl)ncn1Cc1cccnc1 [Example 121b]

>  <LD50 cytotox SY5Y [mM]>
0.68

$$$$
>  <MOLECULE>
NCc1c(-c2ccc(Cl)cc2Cl)ncn1Cc1ccccn1 [Example 39b]

>  <LD50 cytotox SY5Y [mM]>
0.60

$$$$
>  <MOLECULE>
COc1ccccc1Cn1cnc(-c2ccc(Cl)cc2Cl)c1CN [Example 120b]

>  <LD50 cytotox SY5Y [mM]>
0.16

$$$$
>  <MOLECULE>
NCc1c(-c2ccc(Cl)cc2Cl)ncn1Cc1ccccc1OC(F)(F)F [Example 129b]

>  <LD50 cytotox SY5Y [mM]>
0.21

$$$$
>  <MOLECULE>
NCc1c(-c2ccc(Cl)cc2Cl)ncn1Cc1ccccc1 [Example 24b]

>  <LD50 cytotox SY5Y [mM]>
0.19

$$$$
>  <MOLECULE>
NCc1c(-c2ccc(Cl)cc2Cl)ncn1Cc1ccsc1 [Example 130b]

>  <LD50 cytotox SY5Y [mM]>
0.28

$$$$
>  <MOLECULE>
CCOc1ccccc1Cn1cnc(-c2ccc(Cl)cc2Cl)c1CN [Example 128b]

>  <LD50 cytotox SY5Y [mM]>
0.15

$$$$

----------
# ASSAY REMARKS: Blood-brain distribution / LogBB
# Format: in vivo
# CONDITION DETAILS: Animal No. 2; male Wistar rats, bolus plus 60 min continuous i.v. infusion

>  <COMPOUND>
NCc1c(-c2ccc(Cl)cc2Cl)ncn1Cc1ccccn1 [Example 39b]

>  <LogBB>
−0.43

$$$$
>  <COMPOUND>
NCc1c(-c2ccc(Cl)cc2Cl)ncn1Cc1ccsc1 [Example 130b]

>  <LogBB>
−0.63

$$$$
>  <COMPOUND>
NCc1c(-c2ccc(Cl)cc2Cl)ncn1Cc1cccnc1 [Example 121b]

>  <LogBB>
−0.50

$$$$
>  <COMPOUND>
NCc1c(-c2ccc(Cl)cc2Cl)ncn1Cc1ccccc1 [Example 24b]

>  <LogBB>
−0.33

$$$$

----------
# MEASUREMENT TARGET: UniProt P27487
# ASSAY REMARKS: DP IV inhibition IC50, parallel-synthesis compounds tested directly following synthesis (without purification)
# Assay type: biochemical
# Design: IC50 DP4; other: tested directly following parallel synthesis, without purification; compounds of formula (Ib) from parallel synthesis, tested directly following synthesis
# CONDITION DETAILS: tested directly following parallel synthesis, without purification; read-out: IC50 DP4
pIC50: −log10 of the molar value.
Returns one of fulfilled or not fulfilled; fulfilled when pIC50 is >= 5.

>  <COMPOUND>
NCc1c(-c2ccc(F)cc2F)ncn1Cc1ccccn1 [Example 88a]

>  <CLASS NAME>
not fulfilled

$$$$
>  <COMPOUND>
NCc1c(-c2ccc(Cl)cc2Cl)ncn1Cc1ccc(F)cc1Cl [Example 63a]

>  <CLASS NAME>
fulfilled

$$$$
>  <COMPOUND>
NCc1c(-c2ccc(F)cc2F)ncn1Cc1cccc(C(F)(F)F)c1 [Example 75a]

>  <CLASS NAME>
not fulfilled

$$$$
>  <COMPOUND>
COc1ccc(-c2ncn(Cc3cc(Br)ccc3F)c2CN)c(C)c1 [Example 71a]

>  <CLASS NAME>
not fulfilled

$$$$
>  <COMPOUND>
CCOc1ccccc1Cn1cnc(-c2ccc(Cl)cc2Cl)c1CN [Example 50a]

>  <CLASS NAME>
fulfilled

$$$$
>  <COMPOUND>
NCc1c(-c2ccc(Cl)cc2Cl)ncn1Cc1ccccc1C(F)(F)F [Example 51a]

>  <CLASS NAME>
fulfilled

$$$$
>  <COMPOUND>
NCc1c(-c2ccc(Cl)cc2Cl)ncn1Cc1c(Cl)cccc1Cl [Example 60a]

>  <CLASS NAME>
fulfilled

$$$$
>  <COMPOUND>
NCc1c(-c2ccc(F)cc2Cl)ncn1Cc1ccccc1C(F)(F)F [Example 19a]

>  <CLASS NAME>
not fulfilled

$$$$

----------
# MEASUREMENT TARGET: DP IV (Homo sapiens, UniProt P27487)
# Sequence (P27487 whole entry): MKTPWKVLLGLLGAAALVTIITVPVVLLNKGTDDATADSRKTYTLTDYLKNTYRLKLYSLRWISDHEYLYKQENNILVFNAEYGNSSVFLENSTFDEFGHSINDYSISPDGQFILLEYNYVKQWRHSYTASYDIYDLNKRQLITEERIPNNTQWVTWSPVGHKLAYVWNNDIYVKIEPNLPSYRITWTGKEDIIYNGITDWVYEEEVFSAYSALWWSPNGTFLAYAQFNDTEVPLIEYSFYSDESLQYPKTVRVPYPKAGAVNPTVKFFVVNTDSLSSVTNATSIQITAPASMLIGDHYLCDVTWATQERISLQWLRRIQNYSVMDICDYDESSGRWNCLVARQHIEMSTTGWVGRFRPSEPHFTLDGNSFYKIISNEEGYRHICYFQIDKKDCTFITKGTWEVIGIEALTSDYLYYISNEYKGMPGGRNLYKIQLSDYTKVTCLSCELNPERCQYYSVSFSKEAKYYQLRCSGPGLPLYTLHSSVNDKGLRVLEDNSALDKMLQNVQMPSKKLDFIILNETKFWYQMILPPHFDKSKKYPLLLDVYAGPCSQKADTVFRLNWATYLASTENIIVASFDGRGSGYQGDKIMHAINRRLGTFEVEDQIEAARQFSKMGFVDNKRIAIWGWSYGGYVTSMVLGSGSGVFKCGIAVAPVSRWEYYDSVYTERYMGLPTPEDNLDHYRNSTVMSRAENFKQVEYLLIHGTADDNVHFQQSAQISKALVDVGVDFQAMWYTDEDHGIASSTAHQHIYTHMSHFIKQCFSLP
# ASSAY REMARKS: DP IV inhibition IC50, parallel-synthesis compounds tested directly following synthesis (without purification)
# Assay type: biochemical
# Set-up: IC50 DP4; other: tested directly following parallel synthesis, without purification; compounds of formula (Ib) from parallel synthesis, tested directly following synthesis
# CONDITION DETAILS: tested directly following parallel synthesis, without purification; read-out: IC50 DP4
// assign criterion met if IC50 falls strictly below 6 µM, else criterion not met (ties count as criterion not met)

>  <COMPOUND>
COc1cccc(Cn2cnc(-c3ccc(F)cc3F)c2CN)c1 [Example 77a]

>  <CLASS NAME>
criterion not met

$$$$
>  <COMPOUND>
NCc1c(-c2ccc(F)cc2F)ncn1Cc1cccc(F)c1 [Example 78a]

>  <CLASS NAME>
criterion not met

$$$$
>  <COMPOUND>
NCc1c(-c2ccc(Cl)cc2Cl)ncn1Cc1c(F)cccc1F [Example 37a]

>  <CLASS NAME>
criterion met

$$$$
>  <COMPOUND>
NCc1c(-c2ccc(F)cc2F)ncn1Cc1ccc(F)cc1 [Example 74a]

>  <CLASS NAME>
criterion not met

$$$$
>  <COMPOUND>
NCc1c(-c2ccc(F)cc2Cl)ncn1Cc1ccccc1OC(F)(F)F [Example 23a]

>  <CLASS NAME>
criterion met

$$$$
>  <COMPOUND>
NCc1c(-c2ccc(Cl)cc2Cl)ncn1Cc1cccc(C(F)(F)F)c1 [Example 38a]

>  <CLASS NAME>
criterion met

$$$$
>  <COMPOUND>
NCc1c(-c2ccc(F)cc2Cl)ncn1Cc1ccccc1 [Example 15]

>  <CLASS NAME>
criterion not met

$$$$
>  <COMPOUND>
NCc1c(-c2ccc(F)cc2Cl)ncn1Cc1cccc(C(F)(F)F)c1 [Example 6a]

>  <CLASS NAME>
criterion not met

$$$$
>  <COMPOUND>
NCc1c(-c2ccc(F)cc2F)ncn1Cc1ccccc1 [Example 80a]

>  <CLASS NAME>
criterion not met

$$$$
>  <COMPOUND>
NCc1c(-c2ccc(Cl)cc2Cl)ncn1Cc1cccc(F)c1 [Example 42a]

>  <CLASS NAME>
criterion met

$$$$
